Target or test system: Growth hormone secretagogue receptor type 1 (Homo sapiens, UniProt Q92847)
Sequence (Q92847 whole entry): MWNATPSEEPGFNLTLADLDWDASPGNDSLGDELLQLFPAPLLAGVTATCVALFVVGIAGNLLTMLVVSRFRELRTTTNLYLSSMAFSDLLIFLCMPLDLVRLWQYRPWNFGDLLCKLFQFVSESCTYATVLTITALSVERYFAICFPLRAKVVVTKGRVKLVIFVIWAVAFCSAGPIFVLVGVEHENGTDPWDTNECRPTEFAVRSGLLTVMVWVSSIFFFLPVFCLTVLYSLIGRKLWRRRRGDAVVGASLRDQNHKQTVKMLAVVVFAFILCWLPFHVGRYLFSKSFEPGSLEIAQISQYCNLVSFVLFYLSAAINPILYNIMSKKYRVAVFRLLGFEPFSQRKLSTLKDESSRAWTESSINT
Assay text: Inverse agonist activity at human GHSR1a receptor expressed in COS-7 cells assessed as inositol phosphate accumulation after 2 hrs by anion exchange chromatography relative to control
Format: functional, cell-based
Readout name: Efficacy (%)

Compound string: CC(C)C[C@H](NC(=O)[C@H](CC(C)C)NC(=O)[C@@H](Cc1c[nH]c2ccccc12)NC(=O)[C@H](Cc1ccccc1)NC(=O)[C@H](Cc1cccc2ccccc12)NC(=O)[C@H](CCCCN)NC(=O)[C@H](CCCCN)NC(=O)CCC(=O)O)C(N)=O
Readout name: Efficacy
Unit descriptor: %
Value reported: 84
--
Compound string: CC(C)C[C@H](NC(=O)[C@@H](Cc1c[nH]c2ccccc12)NC(=O)[C@H](Cc1ccccc1)NC(=O)[C@H](Cc1cccc2ccccc12)NC(=O)[C@@H](N)CCCCN)C(=O)N[C@@H](CCC(N)=O)C(=O)O
Readout name: Efficacy
Unit descriptor: %
Value reported: 92
--
Compound string: CC(C)C[C@H](NC(=O)[C@@H](Cc1c[nH]c2ccccc12)NC(=O)[C@H](Cc1ccccc1)NC(=O)[C@H](Cc1cccc2ccccc12)NC(=O)[C@@H](N)CCCCN)C(=O)N[C@@H](CC(N)=O)C(=O)O
Readout name: Efficacy
Unit descriptor: %
Value reported: 86
--
Compound string: CC(C)C[C@H](NC(=O)[C@H](CC(C)C)NC(=O)[C@@H](Cc1c[nH]c2ccccc12)NC(=O)[C@H](Cc1ccccc1)NC(=O)[C@H](Cc1cccc2ccccc12)NC(=O)[C@H](CCCCN)NC(=O)CCC(=O)O)C(N)=O
Readout name: Efficacy
Unit descriptor: %
Value reported: 88

---

# EC50 per record follows
Target or test system: Growth hormone secretagogue receptor type 1 (Homo sapiens, UniProt Q92847)
Assay text: Inverse agonist activity at human GHSR1a receptor expressed in COS-7 cells assessed as inositol phosphate accumulation after 2 hrs by anion exchange chromatography
Format: functional, cell-based
Test context: cos-7
Readout name: EC50 (nM)

Compound string: CC(C)C[C@H](NC(=O)[C@H](CC(C)C)NC(=O)[C@@H](Cc1c[nH]c2ccccc12)NC(=O)[C@H](Cc1ccccc1)NC(=O)[C@@H](Cc1cccc2ccccc12)NC(=O)[C@H](CCCCN)NC(=O)CCC(=O)O)C(N)=O
Value reported: 29
--
Compound string: CC(C)C[C@H](NC(=O)[C@@H](Cc1c[nH]c2ccccc12)NC(=O)[C@H](Cc1ccccc1)NC(=O)[C@@H](Cc1cccc2ccccc12)NC(=O)[C@@H](N)CCCCN)C(=O)N[C@@H](CCC(N)=O)C(=O)O
Value reported: 70.2
--
Compound string: CC(C)C[C@H](NC(=O)[C@H](CC(C)C)NC(=O)[C@@H](Cc1c[nH]c2ccccc12)NC(=O)[C@H](Cc1ccccc1)NC(=O)[C@@H](Cc1cccc2ccccc12)NC(=O)[C@H](CCCCN)NC(=O)[C@H](CCCCN)NC(=O)CCC(=O)O)C(N)=O
Value reported: 60.2
--
Compound string: CC(C)C[C@H](NC(=O)[C@@H](Cc1c[nH]c2ccccc12)NC(=O)[C@H](Cc1ccccc1)NC(=O)[C@@H](Cc1cccc2ccccc12)NC(=O)[C@@H](N)CCCCN)C(=O)N[C@@H](CC(N)=O)C(=O)O
Value reported: 189

---

Target or test system: Neuropeptide Y receptor type 2 (Homo sapiens)
Sequence (P49146 whole entry): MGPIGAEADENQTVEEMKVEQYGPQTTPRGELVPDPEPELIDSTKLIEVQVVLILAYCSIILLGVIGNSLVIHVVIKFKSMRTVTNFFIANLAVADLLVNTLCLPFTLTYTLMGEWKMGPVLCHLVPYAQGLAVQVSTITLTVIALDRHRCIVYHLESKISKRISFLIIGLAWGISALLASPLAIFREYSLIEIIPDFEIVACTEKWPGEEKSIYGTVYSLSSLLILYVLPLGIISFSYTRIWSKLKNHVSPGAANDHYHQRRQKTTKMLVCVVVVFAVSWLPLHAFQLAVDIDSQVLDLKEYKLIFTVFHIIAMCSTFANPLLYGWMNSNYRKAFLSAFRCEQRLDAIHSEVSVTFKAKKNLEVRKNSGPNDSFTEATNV
Assay text: Agonist activity at human neuropeptide Y Y2 receptor expressed in COS-7 cells cotransfected with chimeric Gi/q protein assessed as inositol phosphate accumulation after 2 hrs by anion exchange chromatography
Assay type: functional, cell-based
Test context: cos-7
pEC50: −log10 of the molar value.

Compound string: CC(C)C[C@H](NC(=O)[C@@H](Cc1c[nH]c2ccccc12)NC(=O)[C@H](Cc1ccccc1)NC(=O)[C@@H](Cc1cccc2ccccc12)NC(=O)[C@@H](N)CCCCN)C(=O)N[C@@H](CCC(N)=O)C(=O)O
pEC50: < 6.00
--
Compound string: CC(C)C[C@H](NC(=O)[C@H](CC(C)C)NC(=O)[C@@H](Cc1c[nH]c2ccccc12)NC(=O)[C@H](Cc1ccccc1)NC(=O)[C@@H](Cc1cccc2ccccc12)NC(=O)[C@H](CCCCN)NC(=O)CCC(=O)O)C(N)=O
pEC50: < 6.00
--
Compound string: CC(C)C[C@H](NC(=O)[C@H](CC(C)C)NC(=O)[C@@H](Cc1c[nH]c2ccccc12)NC(=O)[C@H](Cc1ccccc1)NC(=O)[C@@H](Cc1cccc2ccccc12)NC(=O)[C@H](CCCCN)NC(=O)[C@H](CCCCN)NC(=O)CCC(=O)O)C(N)=O
pEC50: < 6.00
